The measured values listed here are drawn from PubChem BioAssay (NCATS).

test: qHTS of pediatric cancer cell lines to identify multiple opportunities for drug repurposing: Confirmatory screen for BT-12 cells (AID 1347112); conditions: BT-12 rhabdoid tumor cells, viability; series mostly up to 45.9 µM;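 further: viability read after 48 h of compound exposure; nearly all actives have a fitted effect of over 55% in size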
Inconclusive results are not listed. Activity calls are given as the source filed them. The call rests on the fitted dose curve; in most records, active means well fitted cell-killing curve with a large enough effect; inconclusive means small, poorly fitted or top-dose-only effect; inactive means flat fitted curve, though single readings scatter.
Hi! Could you answer with just one of these? True = active, False = inactive

Examples with answers:
// return assay outcome for "CC(=O)OCC(=O)[C@@]1(OC(C)=O)[C@@H](C)C[C@H]2[C@@H]3C[C@H](F)C4=CC(=O)C=C[C@]4(C)[C@@]3(F)[C@@H](O)C[C@@]21C"
False

How about "CN(C)/N=N/c1nc[nH]c1C(N)=O" ?
False

Moving on to "OC[C@H]1O[C@@H](n2cnc3c(=S)nc[nH]c32)[C@H](O)[C@@H]1O"
True

Lab note: next compound to report on.
For "NC(=O)CC[C@@H]1NC(=O)[C@H](Cc2ccccc2)NC(=O)[C@H](Cc2ccc(O)cc2)NC(=O)CCSSC[C@@H](C(=O)N2CCC[C@H]2C(=O)N[C@@H](CCCN=C(N)N)C(=O)NCC(N)=O)NC(=O)[C@H](CC(N)=O)NC1=O" , what call appears in the results of this test?
False

###

test system: PC26; assay: qHTS profiling for inhibitors of Plasmodium falciparum proliferation (AID 504749); further: nearly all actives have a fitted effect of over 60% in size; conditions: P. falciparum in erythrocytes, SYBR Green DNA, 72 h; series mostly up to 28.7 µM
Results filed as inconclusive are left out. The source made the active and inactive calls. Calls follow the shape of the dose curve; as a rule, active = well fitted inhibition curve with a large enough effect; inconclusive = small, poorly fitted or top-dose-only effect; inactive = flat fitted curve, though single readings scatter.
Please answer using one outcome listed in 1.0 for active, 0.0 for inactive

Previously resolved entries follow.
What outcome does the record of this test show for "CC(=O)Oc1ccc(C(=C2CCCCC2)c2ccc(OC(C)=O)cc2)cc1" ?
0.0

Same question for "CCN1CCC[C@H]1CNC(=O)c1c(OC)ccc(Br)c1OC" please.
0.0

Another: "CC(=O)N(O)CCCCCNC(=O)CCC(=O)N(O)CCCCCNC(=O)CCC(=O)N(O)CCCCCN"
0.0

Record: "O=C1CCC(c2ccc(-n3ccnc3)cc2)=NN1"
0.0

Next:
Which result was noted for this compound in the test: COc1cccc(CCc2ccccc2OCC(CN(C)C)OC(=O)CCC(=O)O)c1 (configuration not stated)
1.0

Also check CCOc1ccc(NC(=O)CC(C)O)cc1 (configuration not stated)
0.0

Thanks! And "CCCCCCCCCCCCCCNCCO" ?
0.0

What would you report for COc1cc2c(cc1OC)C(=O)C(CC1CCN(Cc3ccccc3)CC1)C2 (configuration not stated) ?
0.0

Moving on to the next compound: "C#C[C@]1(OC(C)=O)CC[C@H]2[C@@H]3CCC4=C[C@@H](OC(C)=O)CC[C@@H]4[C@H]3CC[C@@]21C"
0.0

###

molecular target: Cytochrome P450 2D6 (Homo sapiens) (UniProt P10635); experiment: Cytochrome P450 family 2 subfamily D member 6 (CYP2D6) small molecule antagonists: luciferase biochemical (cell-free) qHTS assay (AID 1645840); details: P450-Glo CYP2D6 enzyme, luciferin luminescence, 1 h; series mostly up to 57.4 µM; further: nearly all actives have a fitted effect of over 55% in size
Sequence (P10635 whole entry, looked up): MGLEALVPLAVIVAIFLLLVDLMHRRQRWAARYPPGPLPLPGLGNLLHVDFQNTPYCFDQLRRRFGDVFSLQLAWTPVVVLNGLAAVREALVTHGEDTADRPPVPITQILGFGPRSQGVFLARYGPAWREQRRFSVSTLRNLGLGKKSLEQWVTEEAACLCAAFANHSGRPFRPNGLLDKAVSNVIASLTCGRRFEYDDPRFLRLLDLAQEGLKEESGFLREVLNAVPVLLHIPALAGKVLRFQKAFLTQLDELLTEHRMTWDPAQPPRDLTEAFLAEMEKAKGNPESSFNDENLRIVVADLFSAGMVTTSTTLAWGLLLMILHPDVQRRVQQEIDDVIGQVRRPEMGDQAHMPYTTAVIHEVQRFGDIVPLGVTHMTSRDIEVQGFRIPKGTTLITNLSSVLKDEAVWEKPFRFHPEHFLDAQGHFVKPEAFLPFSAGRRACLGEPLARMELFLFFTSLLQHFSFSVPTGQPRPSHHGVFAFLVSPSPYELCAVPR
Records with an inconclusive call do not appear. The source made the active and inactive calls. Calls follow the shape of the dose curve; as a rule, active = well fitted inhibition curve with a large enough effect in the repeat runs; inconclusive = weak or mixed curves; inactive = flat fitted curve, though single readings scatter.
Choose one outcome from this list and give only that: active, inactive

Use these answered entries as a reference point.
Entry "CC(C)=CCC1C(=O)N(c2ccccc2)N(c2ccccc2)C1=O" : call = ?
inactive

What would you report for "CC(C)C[C@H]1C(=O)N2CCC[C@H]2[C@]2(O)O[C@](NC(=O)[C@@H]3C=C4c5cccc6[nH]c(Br)c(c56)C[C@H]4N(C)C3)(C(C)C)C(=O)N12" ?
inactive

Entry to check: NC(CS)C(=O)O (centres undefined)
inactive

For "CCN(CC)C(=O)N1CCN(C)CC1" then?
inactive

# repeat for "OC[C@H]1O[C@H](O[C@]2(CCl)O[C@H](CCl)[C@@H](O)[C@@H]2O)[C@H](O)[C@@H](O)[C@H]1Cl"
inactive

Further cases:
What did this assay record as the result for "NCCc1ccn[nH]1" ?
inactive

Also, "C/C=C(/C(=C/C)c1ccc(O)cc1)c1ccc(O)cc1" please.
active

Now try "CC1(C)OC[C@@H](COC(=O)CCc2ccc(OC[C@@H](O)CNCCNC(=O)N3CCOCC3)cc2)O1" .
inactive

Record: "C[C@]12C=CC(=O)C=C1[C@@H](F)C[C@@H]1[C@@H]2[C@@H](O)C[C@@]2(C)[C@H]1CC[C@]2(O)C(=O)CO"
inactive
